The origin of these recorded values is ChEMBL document CHEMBL5291721.

# collection of AC50 values tested on UniProt:Q99808
# Sequence (Q99808 whole entry): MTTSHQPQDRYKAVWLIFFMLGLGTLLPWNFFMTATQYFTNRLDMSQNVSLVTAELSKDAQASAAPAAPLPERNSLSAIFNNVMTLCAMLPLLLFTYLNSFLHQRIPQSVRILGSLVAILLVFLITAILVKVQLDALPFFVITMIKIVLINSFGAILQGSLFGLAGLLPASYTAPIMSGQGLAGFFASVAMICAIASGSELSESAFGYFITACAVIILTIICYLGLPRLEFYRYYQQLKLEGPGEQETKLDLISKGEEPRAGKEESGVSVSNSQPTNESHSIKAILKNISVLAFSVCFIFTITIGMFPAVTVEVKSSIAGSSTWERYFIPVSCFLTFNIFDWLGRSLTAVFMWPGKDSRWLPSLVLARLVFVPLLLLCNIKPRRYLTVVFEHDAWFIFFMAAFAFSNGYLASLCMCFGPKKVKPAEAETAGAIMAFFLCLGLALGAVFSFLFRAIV

Task item: Suppose we examine the compound O=C(O)CCCc1ccccc1 ; what AC50 value has been reported?
Reply: > 30 µM

Task item: Suppose we examine the compound COc1c(N2CCNC(C)C2)c(F)cc2c(=O)c(C(=O)O)cn(C3CC3)c12 (stereo unspecified) ; what AC50 value has been reported?
Reply: > 10 µM

Task item: Suppose we examine the compound Nc1nc(N)c2nc(-c3ccccc3)c(N)nc2n1 ; what AC50 value has been reported?
Reply: > 30 µM

Task item: Suppose we examine the compound O=C(Cn1ccnc1[N+](=O)[O-])NCc1ccccc1 ; what AC50 value has been reported?
Reply: > 30 µM

Task item: Suppose we examine the compound CN1C(=O)COc2c(C(=O)NC3CN4CCC3CC4)cc(Cl)cc21 (stereo unspecified) ; what AC50 value has been reported?
Reply: > 30 µM

***
Task item: Suppose we examine the compound O=C(CCCCCCC(=O)Nc1ccccc1)NO ; what AC50 value has been reported?
Reply: > 30 µM

Task item: Suppose we examine the compound C#CC1(OC(N)=O)CCCCC1 [ETHINAMATE] ; what AC50 value has been reported?
Reply: > 10 µM

Task item: Suppose we examine the compound COC(=O)[C@H]1[C@@H](OC(=O)c2ccccc2)C[C@@H]2CC[C@H]1N2C ; what AC50 value has been reported?
Reply: > 30 µM

Task item: Suppose we examine the compound Nc1nc2ccc(OC(F)(F)F)cc2s1 ; what AC50 value has been reported?
Reply: > 30 µM

Task item: Suppose we examine the compound NC(CO)C(=O)NNCc1ccc(O)c(O)c1O (stereo unspecified) [BENSERAZIDE] ; what AC50 value has been reported?
Reply: > 30 µM

Task item: Suppose we examine the compound C[N+](C)(C)CC(=O)O ; what AC50 value has been reported?
Reply: > 30 µM
